Data credit: ChEMBL document CHEMBL1201862

Test system: COLO 205
TEST_DESCRIPTION: NCI tumour cell line growth inhibition, 48 h
Active and inactive are the calls of the source. No stated cut-off is given here; in the data, active = GI50 up to about 1.1 µM and inactive = higher.
Outcome field: choose from YES for active, NO for inactive

Solved cases (5 shown):
{"columns": ["COMPOUND", "EXPERIMENTAL_TARGET", "CAT"],
 "data": [
  ["COC(=O)C1=CON2C3CC4CC(C3)CC(C4)C12C (configuration not stated)", "COLO 205", "NO"],
  ["CC1(OCc2ccccc2)C(=O)N2C1NCC2(C)C (configuration not stated)", "COLO 205", "NO"],
  ["CCCCCCCCCCCCCC(=O)CBr", "COLO 205", "NO"],
  ["CN(/N=C\\c1ccnc2ccccc12)c1ccccc1", "COLO 205", "NO"],
  ["Nc1nc(=O)c(/N=N/c2ccccc2)c(C(=O)O)[nH]1", "COLO 205", "NO"]
]}

Called result for CC1CCC/C1=C(/I)C(=O)c1ccccc1 (configuration not stated)
NO

Field entry: COC(=O)C1CC(=O)CCC1c1ccccc1 (configuration not stated)
NO

Field entry: O=c1[nH]c(=O)n(C2CC(O)C(CO)O2)cc1OCc1ccccc1 (configuration not stated)
NO

Field entry: "CSc1nc(C#N)c(/N=C\N(C)C)n1C"
NO

Field entry: CC(=O)OC(C)C1C2=C(C(=O)CC1(C)O)C(=O)c1c(ccc(-c3ccc4c(c3O)C(=O)C3=C(C4=O)C(C(C)OC(C)=O)C(C)(O)CC3=O)c1O)C2=O (configuration not stated)
YES

###

Test system: UO-31
TEST_DESCRIPTION: NCI tumour cell line growth inhibition, 48 h
The source made the active and inactive calls. Rule as the data show it: active = GI50 up to about 1.1 µM and inactive = higher.
Below, each of the molecules is paired with its reported GI50 value.

Example molecules with recorded GI50:
{"columns": ["MOLECULE", "EXPERIMENTAL_TARGET", "GI50"],
 "data": [
  ["CC1CNC(c2ccc(CN3CCC(CCCC4CCN(Cc5ccc(C6=NC(C)CN6)cc5)CC4)CC3)cc2)=N1 (stereo unspecified)", "UO-31", "> 100 µM (inactive)"],
  ["c1ccc2c(c1)nc1n2sc2nc3ccccc3n21", "UO-31", "> 100 µM (inactive)"],
  ["COCCOCCOC1=CC(=O)c2c(O)ccc(O)c2C1=O", "UO-31", "1.62 µM (inactive)"]
]}

Fill blank: measured GI50 of the molecule "CSc1c(C#N)c(O)n(-c2ccc(Cl)cc2)c(=O)c1C#N" is ____.
72.9 µM (inactive)

Field entry: "COC(=O)[C@H](Cc1ccccc1)NC(=O)CCCCCCC(=O)NO"
33.4 µM (inactive)

Field entry: "O=C(N/C(=C\c1ccc2c(c1)OCO2)c1nc2ccccc2[nH]1)c1ccccc1"
24.6 µM (inactive)

Field entry: O=C(CC(=O)C(=O)Nc1ccccc1)CC(c1ccccc1)c1c(O)c2ccccc2oc1=O (stereo unspecified)
> 100 µM (inactive)

Field entry: "COc1ccc(NC(=O)CC(=O)N/N=C(\C)c2cc3ccccc3oc2=O)cc1"
> 100 µM (inactive)

Field entry: "CN(/N=C\c1ccnc2ccccc12)c1ccccc1"
25.1 µM (inactive)

###

Test system: A549
TEST_DESCRIPTION: NCI tumour cell line growth inhibition, 48 h
Active and inactive are the calls of the source. Rule as the data show it: active = GI50 up to about 1.1 µM and inactive = higher. Residues, ends and D or L forms follow the SMILES beside them.
Outcome field: choose from 1 for active, -1 for inactive

{"columns": ["COMPOUND", "CAT"],
 "data": [
  ["CCCCCNC(=O)C1C(=O)N(CCCCC)C(=O)/C1=N\\N (centres undefined)", -1],
  ["CC(=O)O[C@@]12CO[C@@H]1C[C@@H](O)[C@@]1(C)C(=O)[C@H](O)C3=C(C)[C@@H](OC(=O)[C@H](O)[C@@H](NC(=O)c4ccccc4)c4ccccc4)C[C@@](O)([C@@H](OC(=O)c4ccccc4)C12)C3(C)C (some centres undefined)", 1],
  ["N#Cc1c(-c2ccccc2)cn(C(=O)c2ccccc2)c1N", -1],
  ["CN1C(=O)CN=C(c2ccccc2F)c2cc(N=C=S)ccc21", -1],
  ["CC(=O)OC(C)C1C2=C(C(=O)CC1(C)O)C(=O)c1c(ccc(-c3ccc4c(c3O)C(=O)C3=C(C4=O)C(C(C)OC(C)=O)C(C)(O)CC3=O)c1O)C2=O (centres undefined)", -1]
]}

Called result for O=C(O)C(CCc1ccccc1)N1C(=O)c2ccccc2C1=O (centres undefined)
-1

Field entry: "COc1ccccc1NC(=O)C1=C(C)NC(C)=C(C(=O)Nc2ccccc2OC)C1c1ccc([N+](=O)[O-])cc1"
-1

Field entry: O=C1CS(=O)(=O)C(c2cccc(Oc3ccccc3)c2)N1c1cccc(Cl)c1Cl (centres undefined)
-1

Field entry: CC(=O)NC(CO)C(=O)NC(Cc1ccc(O)cc1)C(=O)NCC(N)=O (stereo not drawn) (Ac-Ser-Tyr-Gly-NH2; configuration not given here)
-1

Field entry: COc1cc2c(cc1OC)C1CCc3ccccc3CN1CC2 (centres undefined)
-1

Field entry: "Nc1nc(Cl)cc(NCC2(CO)CC=CC2)n1"
-1

Field entry: "C#C[C@]1(O)CC[C@H]2[C@@H]3CCC4=C/C(=N/CCOC(=O)c5cccc6cc7ccccc7nc56)CC[C@@H]4[C@H]3CC[C@@]21C"
-1

Field entry: "CSc1c(C#N)c(O)n(-c2ccc(Cl)cc2)c(=O)c1C#N"
-1

###

System: HL-60
TEST_DESCRIPTION: NCI tumour cell line growth inhibition, 48 h
Active and inactive are the calls of the source. Cut-off read from the data, not from the text of the source: active = GI50 up to about 1.1 µM and inactive = higher.
Outcome field: choose from active, inactive

{"columns": ["COMPOUND", "CAT"],
 "data": [
  ["CN(CCN(C)C(=O)CCn1cc(F)c(=O)[nH]c1=O)C(=O)CCn1cc(F)c(=O)[nH]c1=O", "inactive"],
  ["Clc1cc(Cl)c2ns[s+]c2c1Cl", "inactive"],
  ["O=C1/C(=N/O)Cc2c(Br)ccc(Br)c21", "inactive"],
  ["CCCCOC(=O)NC(Nc1ccc(S(=O)(=O)Nc2ncccn2)cc1)(C(F)(F)F)C(F)(F)F", "inactive"],
  ["CC(=O)OCc1cc2ccccc2nc1C(Br)(Br)Br", "inactive"],
  ["Cc1ccc(-c2cc(-c3ccc(Cl)cc3)nc(/N=C3\\C(=O)N(CN(C)C)c4ccccc43)n2)cc1", "inactive"]
]}

Called result for "Cn1c(N/N=C/c2ccccc2)nc(-c2ccc3c(c2)OCO3)c(C#N)c1=O"
inactive

Field entry: CC(=O)O[C@@]12CO[C@@H]1C[C@@H](O)[C@@]1(C)C(=O)[C@H](O)C3=C(C)[C@@H](OC(=O)[C@H](O)[C@@H](NC(=O)c4ccccc4)c4ccccc4)C[C@@](O)([C@@H](OC(=O)c4ccccc4)C12)C3(C)C (some centres undefined)
active

Field entry: "NC1=CN(Cc2ccccc2)C2=N/C(=C\c3ccco3)C(=O)N12"
inactive

Field entry: COc1ccc(C(=O)C(c2ccc(OC)cc2)C2(O)C(=O)Nc3c(C)cc(Cl)cc32)cc1 (centres undefined)
inactive

Field entry: "O=C(Nc1ccccc1)c1cc(S(=O)(=O)Nc2n[nH]c(=O)n2-c2ccccc2)c(S)cc1Cl"
inactive

###

Test system: 786-0
TEST_DESCRIPTION: NCI tumour cell line growth inhibition, 48 h
Activity calls are given as the source filed them. Rule as the data show it: active = GI50 up to about 1.1 µM and inactive = higher.
TEST_READOUT: GI50

{"columns": ["COMPOUND", "EXPERIMENTAL_TARGET", "GI50"],
 "data": [
  ["CC(C)(C)[Si](C)(C)OCc1cccc(OCCOc2cccc(CO[Si](C)(C)C(C)(C)C)c2[N+](=O)[O-])c1[N+](=O)[O-]", "786-0", "> 100 µM (inactive)"],
  ["S=C1c2cc(Cl)ccc2N=C(NC2CCCC2)C2CSCN12 (stereo unspecified)", "786-0", "> 100 µM (inactive)"],
  ["CC(=O)OCC1OC(n2c(-c3ccc(Cl)cc3)cc(-c3ccccc3)c(C#N)c2=S)C(OC(C)=O)C(OC(C)=O)C1OC(C)=O (stereo unspecified)", "786-0", "12.2 µM (inactive)"],
  ["Cc1nn(-c2ccccc2)c2nc(N3CCOCC3)nnc12", "786-0", "> 100 µM (inactive)"]
]}

Fill blank: measured GI50 of the compound COc1cc2cc(C(=O)N3CC(CCl)c4c3cc(O)c3ccccc43)[nH]c2c(OC)c1OC (stereo unspecified) is ____.
< 0.005 µM (active)

Field entry: "CC1(C)OP(=O)(O)CC1=O"
> 100 µM (inactive)

###

Tested on: OVCAR-5
TEST_DESCRIPTION: NCI tumour cell line growth inhibition, 48 h
Calls of active or inactive are those of the source. Rule as the data show it: active = GI50 up to about 1.1 µM and inactive = higher.
Below, each of the molecules is paired with its reported GI50 value.

Example molecules with recorded GI50:
{"columns": ["MOLECULE", "EXPERIMENTAL_TARGET", "GI50"],
 "data": [
  ["C[C@H](c1ccccc1)N1C(=O)[C@@H](OCc2ccccc2)[C@H]1[C@H](COC(=O)COCc1ccccc1)OCc1ccccc1", "OVCAR-5", "> 100 µM (inactive)"],
  ["O=C1CC2CCN(C(=O)c3ccccc3)CC2CCN1.O=C1CCC2CC(C(=O)c3ccccc3)CCC2CN1 (stereo not drawn)", "OVCAR-5", "> 100 µM (inactive)"]
]}

Fill blank: measured GI50 of the molecule "Cc1cc(-c2nc3ccc(F)cc3s2)ccc1N" is ____.
> 100 µM (inactive)

Field entry: "N#Cc1ccccc1NC(=O)c1ccccc1"
> 100 µM (inactive)

Field entry: COc1ccc(C2COc3cc(O)c(O)cc3C2)cc1 (stereo not drawn)
148 µM (inactive)

Field entry: "O=C1CCCc2c1c1c(n2Cc2ccccc2)-c2ccccc2C1=O"
32.1 µM (inactive)

Field entry: O=c1c2ccccc2nc(-c2ccccc2Cl)n1NC1OC(CO)C(O)C(O)C1O (stereo not drawn)
> 100 µM (inactive)

Field entry: "Cc1nc2cc(F)c(F)cc2[nH]c1=O"
> 100 µM (inactive)

Field entry: CC1COS(=O)N1c1ccccc1 (stereo not drawn)
> 100 µM (inactive)

Field entry: "CSc1nc(C#N)c(/N=C\N(C)C)n1C"
> 100 µM (inactive)

Field entry: CCCCCCCCCCCCCCCC(=O)NCC(COP(=O)([O-])OCC[N+](C)(C)C)OCC (stereo not drawn)
10 µM (inactive)

Field entry: "C=CCN1C(=O)/C(=C/c2cccs2)N=C1SC/C=C/C"
65.6 µM (inactive)

Field entry: C=C1C(=O)O[C@H]2C1C[C@@H](O)[C@@]1(C)OC1CC[C@@]1(C)O[C@H]21 (stereo partly drawn)
28.7 µM (inactive)

Field entry: CC(=O)NC1C(OCc2ccccc2)OC(CO)C(O)C1OC(C)C(=O)NC(C(=O)NC(CCC(=O)NCCCC(=O)Nc1ccc2c(c1)CN1C(=O)c3ccccc3C1=N2)C(N)=O)C(C)C (stereo not drawn)
> 100 µM (inactive)

Field entry: O=C(O)CCC(/N=C(\C(=N\C(CCC(=O)O)C(=O)O)c1ccccc1)c1ccccc1)C(=O)O (stereo not drawn)
> 100 µM (inactive)
